Target: T1, CD19 (UniProt P15391 20-556, limits assumed)
T1 sequence (looked up): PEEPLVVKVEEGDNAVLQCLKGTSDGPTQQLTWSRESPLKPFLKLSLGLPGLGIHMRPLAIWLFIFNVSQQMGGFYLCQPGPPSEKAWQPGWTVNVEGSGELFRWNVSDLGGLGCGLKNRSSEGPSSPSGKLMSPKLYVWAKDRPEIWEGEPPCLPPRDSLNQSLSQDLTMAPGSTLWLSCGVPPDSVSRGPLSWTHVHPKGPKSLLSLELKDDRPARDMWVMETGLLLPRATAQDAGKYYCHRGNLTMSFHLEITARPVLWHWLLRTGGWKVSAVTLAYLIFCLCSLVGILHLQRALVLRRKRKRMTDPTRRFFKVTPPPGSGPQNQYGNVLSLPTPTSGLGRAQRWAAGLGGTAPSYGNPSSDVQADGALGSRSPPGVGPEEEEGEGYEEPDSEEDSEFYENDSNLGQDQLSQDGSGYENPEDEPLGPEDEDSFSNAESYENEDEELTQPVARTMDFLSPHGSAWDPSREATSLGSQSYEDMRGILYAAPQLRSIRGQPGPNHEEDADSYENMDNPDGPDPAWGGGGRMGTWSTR
Assay: cell-based or functional assay
RECORDED ENDPOINT: IC50, in vitro cytotoxicity, Ramos cells (ng/mL)
Quick note: give the figure in ng/mL, leave out the unit.

IC50, in vitro cytotoxicity, Ramos cells for hBU12-43 (antibody, V domains shown, antibody carries drug-linker 43 (MDpr-Lys(PEG2)-glucuronide-MMAE), 8 drugs per antibody) VH: QVQLQESGPGLVKPSQTLSLTCTVSGGSISTSGMGVGWIRQHPGKGLEWIGHIWWDDDKRYNPALKSRVTISVDTSKNQFSLKLSSVTAADTAVYYCARMELWSYYFDYWGQGTLVTVSS VL: EIVLTQSPATLSLSPGERATLSCSASSSVSYMHWYQQKPGQAPRLLIYDTSKLASGIPARFSGSGSGTDFTLTISSLEPEDVAVYYCFQGSVYPFTFGQGTKLEIKR ? 2

Dear colleague, I am looking for the recorded IC50, in vitro cytotoxicity, Ramos cells of the following binder: hBU12-14 (antibody, V domains shown, antibody carries drug-linker 14 (MDpr-glucuronide-MMAE, no PEG), 8 drugs per antibody) VH: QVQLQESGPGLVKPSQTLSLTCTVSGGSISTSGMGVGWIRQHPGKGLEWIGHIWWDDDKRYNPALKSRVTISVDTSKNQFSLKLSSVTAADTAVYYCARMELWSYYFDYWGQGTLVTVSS VL: EIVLTQSPATLSLSPGERATLSCSASSSVSYMHWYQQKPGQAPRLLIYDTSKLASGIPARFSGSGSGTDFTLTISSLEPEDVAVYYCFQGSVYPFTFGQGTKLEIKR 2
